Target: Proteasome subunit beta type-7 (Homo sapiens)
Sequence (Q99436 whole entry): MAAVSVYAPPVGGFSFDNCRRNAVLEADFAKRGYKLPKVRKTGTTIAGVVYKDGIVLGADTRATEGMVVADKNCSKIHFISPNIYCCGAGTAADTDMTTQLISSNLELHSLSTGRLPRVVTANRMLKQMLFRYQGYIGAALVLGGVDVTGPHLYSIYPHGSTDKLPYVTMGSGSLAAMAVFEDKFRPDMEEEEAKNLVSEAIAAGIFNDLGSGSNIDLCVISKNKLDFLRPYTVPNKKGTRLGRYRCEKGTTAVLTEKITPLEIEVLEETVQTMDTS
Assay: Inhibition of human 20S constitutive proteasome beta 2 subunit trypsin-like activity using fluorogenic peptide Ac-WLR-AMC as substrate in presence of PA28alpha incubated for 1 to 2 hrs by fluorescence microplate reader assay
A collection of molecules and their measured IC50
metricName: IC50 (µM)

>  <structureString>
CC(=O)N1CCC[C@@H]1C(=O)N[C@@H](C)C(=O)N[C@@H](Cc1ccccc1)B(O)O

>  <metricName>
IC50

>  <relationalOperator>
>

>  <reportedMeasurement>
10

$$$$
>  <structureString>
CC(C)C[C@H](NC(=O)[C@H](Cc1ccccc1)NC(=O)Cc1ccc(O)cc1)B(O)O

>  <metricName>
IC50

>  <relationalOperator>
=

>  <reportedMeasurement>
0.68

$$$$
>  <structureString>
Cc1ccc(S(=O)(=O)N[C@@H](CC(=O)NCC(C)(C)C)C(=O)N[C@@H](Cc2ccccc2)C(=O)N[C@@H](CC(C)C)B(O)O)cc1

>  <metricName>
IC50

>  <relationalOperator>
=

>  <reportedMeasurement>
0.44

$$$$
>  <structureString>
CC(=O)N1CCC[C@H]1C(=O)N[C@@H](C)C(=O)N[C@@H](CC(C)C)B(O)O

>  <metricName>
IC50

>  <relationalOperator>
>

>  <reportedMeasurement>
10

$$$$

---

biological target: Proteasome Macropain subunit MB1 (Homo sapiens, UniProt P28074); test: Inhibition of human 20S constitutive proteasome beta 5 subunit chymotrypsin-like activity using fluorogenic peptide Ac-WLA-AMC as substrate in presence of PA28alpha incubated for 1 to 2 hrs by fluorescence microplate reader assay
Sequence (P28074 whole entry): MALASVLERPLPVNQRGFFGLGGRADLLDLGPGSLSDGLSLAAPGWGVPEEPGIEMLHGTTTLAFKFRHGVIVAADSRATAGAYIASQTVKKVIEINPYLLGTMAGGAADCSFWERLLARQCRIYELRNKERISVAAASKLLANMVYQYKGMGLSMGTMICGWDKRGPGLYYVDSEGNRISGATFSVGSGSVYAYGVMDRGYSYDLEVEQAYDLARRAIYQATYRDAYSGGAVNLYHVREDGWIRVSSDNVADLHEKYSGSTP

>  <structureString>
CC(=O)N1CCC[C@H]1C(=O)N[C@@H](C)C(=O)N[C@@H](CC(C)C)B(O)O

>  <targetOrSystem>
Proteasome Macropain subunit MB1 (Homo sapiens, UniProt P28074)

>  <IC50 (nM)>
97

$$$$
>  <structureString>
Cc1ccc(S(=O)(=O)N[C@@H](CC(=O)NCC(C)(C)C)C(=O)N[C@@H](Cc2ccccc2)C(=O)N[C@@H](CC(C)C)B(O)O)cc1

>  <targetOrSystem>
Proteasome Macropain subunit MB1 (Homo sapiens, UniProt P28074)

>  <IC50 (nM)>
9

$$$$
>  <structureString>
CC(=O)N1CCC[C@@H]1C(=O)N[C@@H](C)C(=O)N[C@@H](Cc1ccccc1)B(O)O

>  <targetOrSystem>
Proteasome Macropain subunit MB1 (Homo sapiens, UniProt P28074)

>  <IC50 (nM)>
220

$$$$
>  <structureString>
CC(C)C[C@H](NC(=O)[C@H](Cc1ccccc1)NC(=O)Cc1ccc(O)cc1)B(O)O

>  <targetOrSystem>
Proteasome Macropain subunit MB1 (Homo sapiens, UniProt P28074)

>  <IC50 (nM)>
1.4

$$$$
